- assay target: hPPAR α (Homo sapiens, UniProt Q07869)
- Sequence (Q07869 239-466 limits assumed): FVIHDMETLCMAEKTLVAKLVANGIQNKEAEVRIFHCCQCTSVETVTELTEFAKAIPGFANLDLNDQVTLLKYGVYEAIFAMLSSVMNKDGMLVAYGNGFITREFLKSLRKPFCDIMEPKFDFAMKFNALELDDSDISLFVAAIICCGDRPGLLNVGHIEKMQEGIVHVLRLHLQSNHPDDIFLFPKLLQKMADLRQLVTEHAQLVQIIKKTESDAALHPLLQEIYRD
- test method notes: cell-based human PPAR-GAL4 chimera luciferase reporter assay in CV-1 cells
- condition label: PPAR LBD-GAL4 chimera, 24 hours treatment, read-out: hPPAP α (EC50)
- Method: The compounds were evaluated in a cell-based assay to determine their human PPAR activity (See Tables 2 and 3). The plasmids for human PPAR-GAL4 chimeras were prepared by fusing amplified cDNAs encoding the LBDs of PPARs to the C-terminal end of the yeast GAL4 DNA binding domain. […] Luciferase activity was then assayed with Britelite (Perkin Elmer) following the manufacturer's protocol and measured with either the Perkin Elmer Viewlux or Molecular Devices Acquest.
endpoint name: EC50

Request: What value of measured EC50 is listed for "CCCCN(CCCOc1cccc(C(=O)O)n1)c1nc2ccccc2o1" ?
Response: 1 to 100 µM

Request: # iterate: "O=C(O)c1cccc(OCCCN(Cc2ccc(C(F)(F)F)cc2C(F)(F)F)c2nc3ccccc3o2)n1"
Response: < 1 µM

Request: # iterate: "CCc1cnc(N(CCCOc2ccc3c(c2)c(CC(=O)O)cn3C)Cc2ccc(C(F)(F)F)cc2C(F)(F)F)nc1"
Response: 1 to 100 µM

Request: # iterate: "CCCCN(CCCOc1ccc2[nH]cc(CC(=O)O)c2c1)c1ncc(CC)cn1"
Response: > 100 µM

Request: # iterate: "O=C(O)Cc1c[nH]c2ccc(OCCCN(Cc3ccc(C(F)(F)F)cc3C(F)(F)F)c3nc4ccccc4s3)cc12"
Response: > 100 µM

Request: # iterate: "O=C(O)c1cccc(OCCCN(Cc2ccc(C(F)(F)F)cc2)c2nc3ccccc3s2)n1"
Response: > 100 µM

Request: # iterate: "O=C(O)c1cncc(OCCCN(Cc2ccc(C(F)(F)F)cc2)c2nc3ccccc3s2)c1"
Response: 1 to 100 µM

Request: # iterate: "CCc1cnc(N(CCCOc2ncc(C(=O)O)cc2Cl)Cc2ccc(C(F)(F)F)cc2C(F)(F)F)nc1"
Response: > 100 µM

Request: # iterate: "CCCCN(CCCOc1ccc2[nH]cc(CC(=O)O)c2c1)c1nc2ccccc2s1"
Response: > 100 µM

Request: # iterate: "CCCCN(CCCOc1cncc(C(=O)O)c1)c1nc2ccccc2s1"
Response: > 100 µM

Request: # iterate: "O=C(O)c1cncc(OCCCN(Cc2ccc(C(F)(F)F)cc2C(F)(F)F)c2nc3ccccc3s2)c1"
Response: > 100 µM

Request: # iterate: "CCCCN(CCCOc1cncc(C(=O)O)c1)c1ncc(CC)cn1"
Response: > 100 µM

Request: # iterate: "O=C(O)c1cncc(OCCCN(Cc2ccc(C(F)(F)F)cc2C(F)(F)F)c2ccccn2)c1"
Response: 1 to 100 µM

Request: # iterate: "CCCCN(CCCOc1cccc(C(=O)O)n1)c1ncc(CC)cn1"
Response: 1 to 100 µM

Request: # iterate: "CCc1cnc(N(CCCOc2nc3ccccc3nc2C(=O)O)Cc2ccc(C(F)(F)F)cc2C(F)(F)F)nc1"
Response: > 100 µM

Request: # iterate: "CCCCN(CCCOc1cccc(C(=O)O)n1)c1ccccn1"
Response: > 100 µM

Request: # iterate: "CCCCN(CCCOc1ccc2[nH]cc(CC(=O)O)c2c1)c1ccccn1"
Response: > 100 µM

----------
- assay target: hPPAR γ (Homo sapiens)
- Sequence (P37231 238-503 limits assumed): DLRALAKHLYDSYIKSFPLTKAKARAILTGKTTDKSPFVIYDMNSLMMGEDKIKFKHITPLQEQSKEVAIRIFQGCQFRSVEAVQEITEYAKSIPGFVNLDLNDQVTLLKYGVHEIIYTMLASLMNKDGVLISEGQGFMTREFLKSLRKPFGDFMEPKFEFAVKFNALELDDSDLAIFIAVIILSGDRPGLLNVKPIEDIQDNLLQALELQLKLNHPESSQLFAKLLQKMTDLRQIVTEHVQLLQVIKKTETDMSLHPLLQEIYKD
- test method notes: cell-based human PPAR-GAL4 chimera luciferase reporter assay in CV-1 cells
- condition label: PPAR LBD-GAL4 chimera, 24 hours treatment
endpoint name: EC50

Request: What value of measured EC50 is listed for "O=C(O)c1cccc(OCCCN(Cc2ccc(C(F)(F)F)cc2C(F)(F)F)c2nc3ccccc3o2)n1" ?
Response: > 100000 nM

Request: # iterate: "O=C(O)c1cccc(OCCCN(Cc2ccc(C(F)(F)F)cc2)c2nc3ccccc3s2)n1"
Response: < 1000 nM

Request: # iterate: "CCCCN(CCCOc1ccc2[nH]cc(CC(=O)O)c2c1)c1ccccn1"
Response: 1000 to 100000 nM

Request: # iterate: "CCCCN(CCCOc1nc2ccccc2nc1C(=O)O)c1nc2ccccc2o1"
Response: 1000 to 100000 nM

Request: # iterate: "CCc1cnc(N(CCCOc2cncc(C(=O)O)c2)Cc2ccc(C(F)(F)F)cc2C(F)(F)F)nc1"
Response: < 1000 nM

Request: # iterate: "O=C(O)c1nc2ccccc2nc1OCCCN(Cc1ccc(C(F)(F)F)cc1C(F)(F)F)c1nc2ccccc2o1"
Response: < 1000 nM

Request: # iterate: "CCc1cnc(N(CCCOc2nc3ccccc3nc2C(=O)O)Cc2ccc(C(F)(F)F)cc2C(F)(F)F)nc1"
Response: < 1000 nM

Request: # iterate: "CCCCN(CCCOc1cccc(C(=O)O)n1)c1nc2ccccc2s1"
Response: 1000 to 100000 nM

Request: # iterate: "CCCCN(CCCOc1nc2ccccc2nc1C(=O)O)c1ncc(CC)cn1"
Response: 1000 to 100000 nM

Request: # iterate: "CCCCN(CCCOc1ccc2[nH]cc(CC(=O)O)c2c1)c1ncc(CC)cn1"
Response: 1000 to 100000 nM

Request: # iterate: "CCCCN(CCCOc1cccc(C(=O)O)n1)c1ccccn1"
Response: 1000 to 100000 nM

Request: # iterate: "O=C(O)c1nc2ccccc2nc1OCCCN(Cc1ccc(C(F)(F)F)cc1)c1nc2ccccc2s1"
Response: > 100000 nM

Request: # iterate: "O=C(O)c1cccc(OCCCN(Cc2ccc(C(F)(F)F)cc2C(F)(F)F)c2ccccn2)n1"
Response: < 1000 nM

Request: # iterate: "O=C(O)c1nc2ccccc2nc1OCCCN(Cc1ccc(C(F)(F)F)cc1C(F)(F)F)c1nc2ccccc2s1"
Response: < 1000 nM

Hello, the source for this data is patent US20070208026A1, in case you need it.
